Reported melting point values are given for each entry in this list.
experimental endpoint: melting point

>>> print(df.to_string())
                                   compound  experimental_endpoint           result
0  CC[C@H](N)C(=O)N1c2ccc(OC)cc2CC1C(=O)NCC(F)(F)F.O=C(O)C(F)(F)F (mixture of isomers) [Example 9]          melting point    63.5 to 66 °C
1  CCCCNC(=O)C1Cc2c(ccc(Cl)c2Cl)N1C(=O)[C@@H](N)CC.O=C(O)C(F)(F)F (mixture of isomers)          melting point    115 to 124 °C
2  CC[C@H](N)C(=O)N1c2cccc(C)c2CC1C(=O)NCC(F)(F)F.O=C(O)C(F)(F)F (mixture of isomers)          melting point    109 to 122 °C
3  CC[C@H](N)C(=O)N1c2ccc(Cl)c(Cl)c2CC1C(=O)NCC(F)(F)F.O=C(O)C(F)(F)F (mixture of isomers)          melting point      68 to 78 °C
4  CC[C@H](N)C(=O)N1c2cccc(F)c2CC1C(=O)NCC(F)(F)F.O=C(O)C(F)(F)F (mixture of isomers) [Example 8]          melting point  57.5 to 58.5 °C
5  CC[C@H](N)C(=O)N1c2ccc(OC)c(OC)c2CC1C(=O)NCC(F)(F)F.O=C(O)C(F)(F)F (mixture of isomers)          melting point      79 to 87 °C
6  CC[C@H](N)C(=O)N1c2ccc(Cl)cc2C[C@H]1C(=O)NCC(F)(F)F.O=C(O)C(F)(F)F [Example 1]          melting point      34 to 35 °C
